assayed-target: CDK2 (UniProt P24941)
run-description: Enzyme Assay
pIC50: −log10 of the molar value.
observable: pIC50

1. COc1ccccc1-c1cc(Nc2ccc(NC(=O)NC(C)(C)C)cc2)ncn1	5.00 to 6.00
2. Cc1ccc(Nc2cc(-c3ccccc3OC(C)C)ncn2)cc1NS(C)(=O)=O	6.00 to 9.00
3. COc1ccccc1-c1cc(Nc2ccc(NC(=O)c3nc4ccccc4s3)cc2)ncn1	3.60 to 5.00
4. CC(C)Oc1ccccc1-c1cc(Nc2ccc(C(=O)N[C@@H]3CCCC[C@H]3N)cc2)ncn1.CC(C)Oc1ccccc1-c1cc(Nc2ccc(C(=O)N[C@H]3CCCC[C@@H]3N)cc2)ncn1	5.00 to 6.00
5. COc1ccccc1-c1cc(Nc2ccc(-c3nc4ccccc4o3)cc2)ncn1	3.60 to 5.00
6. COc1cccc(-c2cc(Nc3ccc(NC(=O)c4ccc(N)cc4)cc3)ncn2)c1OC	5.00 to 6.00
7. CC(C)(C)C(=O)Nc1ccc(Nc2cc(-c3ccccc3OCc3ccccc3)ncn2)cc1	5.00 to 6.00
8. COc1ccccc1-c1cc(Nc2ccc(NS(C)(=O)=O)cc2)ncn1	6.00 to 9.00
9. COc1ccccc1-c1cc(Nc2ccc(NS(=O)(=O)c3ccc(C)cc3)cc2)ncn1	6.00 to 9.00
